# Test system: SmLux
# measurement-protocol: Computationally generated LgLux variants expressed in E. coli, tested in lysates with SmLux and substrate 1c
# Format: biochemical
# measurement-conditions: 50 uM substrate 1c, before SmLux peptide addition
The label is Met for Baseline Signal (Normalized by expression) below 200 and Not met for Baseline Signal (Normalized by expression) equal to or exceeding 200.

>>> qualitative_label("5272 (protein) MTPEERIANVRAFYAALASGDWAAAEALFDPGVTITLWDGTTFTSVAEFRAWFEQQFQTSKDALREILDIEVEGDVVRVLVRLTFVRDGKEQVVDLLQLFKFV")
"Met"

Please state whether Baseline Signal (Normalized by expression) is below 200 for 5270 (protein) MTPEAIIANVKAFYAALASGDWAAARALFDPGVTITLWDGTTFTSVEEFRAWFEAQFETSKDALREIVSMEVEGDTVRVLVRLTFVRNGKEEVVDLLQLFKFV
Met

is_below(Baseline Signal (Normalized by expression), 200) for 5265 (protein) MTPEQIRANVRAFYAALASGDWAAAEALFDPGVTITLWDGTTFTSVAEFRAWFEEQFKTSKDALREIVSMEVEGDTVRVLVRLTFVRDGEEKVVDLLQLFKFV ?
Met

Input 5114 (protein) MTPEEIIANVKNFYAALASGDLEAAKALFDPGTTITLWDGTTFTSLEEFLAWFEKQFKASKDAKREIVSMEVEGNVVKVLVRLTYTVDGEEKVVDLLQLLKFV ; condition: Baseline Signal (Normalized by expression) strictly below 200. Does it hold?
Not met

hey, is Baseline Signal (Normalized by expression) for 5262 (protein) MTPEERIENVRAFYAALASGDWAAARALFDPGVTITLWDGTTFTSVEEFRAWFEKQFKTSKDALREIESIEVEGDTVRVLVRLTFTRDGKEEEVDLLQLFKFV lower than 200 or not?
Met

# strict comparison: is reported Baseline Signal (Normalized by expression) < 200? input = 5113 (protein) MTPEEIRANVEAFYAALASGDLEAAKALFDPGTTITLWDGTTFTSLEEFLAWFEKQFEASKDAKREILSLEIEGNTVRVLVRLTYTKDGKEQVVDLLQLLKFV
Met

The origin of these recorded values is patent US20260250737A1.
